biological target: CYP 1A2 (Homo sapiens, UniProt P05177); construct: from tissue; host or cells: human liver microsomes; test: CYP inhibition in human liver microsomes, 1A2; type: in vitro ADME; settings: pH 7.4, @ 10 μM concn
Sequence (P05177 whole entry): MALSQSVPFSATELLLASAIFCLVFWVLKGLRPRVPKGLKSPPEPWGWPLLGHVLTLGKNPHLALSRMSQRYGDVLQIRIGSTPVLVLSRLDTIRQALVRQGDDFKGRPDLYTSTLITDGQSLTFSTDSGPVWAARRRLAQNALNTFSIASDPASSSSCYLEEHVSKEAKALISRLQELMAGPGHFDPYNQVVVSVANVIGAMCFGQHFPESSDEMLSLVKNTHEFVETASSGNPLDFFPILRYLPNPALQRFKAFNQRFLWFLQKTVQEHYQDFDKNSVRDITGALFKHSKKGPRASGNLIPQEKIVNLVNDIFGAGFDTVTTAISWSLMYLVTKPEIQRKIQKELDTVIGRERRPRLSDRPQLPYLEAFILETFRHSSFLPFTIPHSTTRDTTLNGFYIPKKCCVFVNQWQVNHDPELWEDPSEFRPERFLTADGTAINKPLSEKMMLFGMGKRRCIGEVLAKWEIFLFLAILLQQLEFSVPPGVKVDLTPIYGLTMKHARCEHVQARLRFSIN
inhibition at 10 μM values, listed per item

>  <molecule>
C=CC(=O)N1CC2CC(n3nc(-c4ccc5c(c4)oc4ccccc45)c4c(N)ncnc43)CC2C1 (stereo not shown)

>  <inhibition at 10 μM>
< 50%

$$$$
>  <molecule>
C=CC(=O)N1CC2CN(c3ccc(Cn4nc(-c5ccc(Oc6ccccc6)cc5)c5c(N)ncnc54)cn3)CC2C1 (stereo not shown)

>  <inhibition at 10 μM>
< 50%

$$$$
>  <molecule>
C=CC(=O)N1CC2CC(n3nc(-c4ccc(Oc5cccnc5)cc4)c4c(N)ncnc43)CC2C1 (stereo not shown)

>  <inhibition at 10 μM>
> 50%

$$$$
>  <molecule>
C=CC(=O)N1CC2CC(n3nc(-c4ccc5c(c4)OCO5)c4c(N)ncnc43)CC2C1 (stereo not shown)

>  <inhibition at 10 μM>
< 50%

$$$$
>  <molecule>
C=CC(=O)N1CC2CN(CCn3nc(-c4ccc(Oc5ccccc5)cc4)c4c(N)ncnc43)CC2C1 (stereo not shown)

>  <inhibition at 10 μM>
< 50%

$$$$
>  <molecule>
C=CC(=O)N1CC2CC(n3nc(-c4ccc(/C(=N/c5cc(C)ccn5)OC)cc4)c4c(N)ncnc43)CC2C1 (stereo not shown)

>  <inhibition at 10 μM>
< 50%

$$$$
>  <molecule>
C=CC(=O)N1CC2CC(n3nc(-c4ccc(C(=O)Nc5cnccn5)cc4)c4c(N)ncnc43)CC2C1 (stereo not shown)

>  <inhibition at 10 μM>
< 50%

$$$$
>  <molecule>
C=CC(=O)N1CC2CC(n3nc(-c4ccc(Oc5ccccc5)cc4)c4c(N)ncnc43)CC2C1 (stereo not shown)

>  <inhibition at 10 μM>
< 50%

$$$$
>  <molecule>
C=CC(=O)N1CC2CC(n3c(Br)c(-c4ccc(Oc5ccccc5)cc4)c4c(N)ncnc43)CC2C1 (stereo not shown)

>  <inhibition at 10 μM>
< 50%

$$$$
>  <molecule>
C=CC(=O)N1CC2CC(n3nc(-c4ccc(C(=O)Nc5nc6ccccc6s5)cc4)c4c(N)ncnc43)CC2C1 (stereo not shown)

>  <inhibition at 10 μM>
> 50%

$$$$
